Biological target: T1, monovalent hVISTA-ECD with polyhistidine tail (SEQ ID NO: 325) (human, UniProt Q9H7M9 33-193)
T1 construct: also called hVISTA-ECD 6-His tag; human VISTA
T1 sequence (Q9H7M9 other isoform, or with tags, fused parts or gaps limits assumed): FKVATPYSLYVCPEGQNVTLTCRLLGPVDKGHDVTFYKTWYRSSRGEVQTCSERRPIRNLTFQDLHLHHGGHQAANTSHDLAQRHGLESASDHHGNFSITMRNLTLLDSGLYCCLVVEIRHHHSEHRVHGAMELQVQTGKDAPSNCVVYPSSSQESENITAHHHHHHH
Assay: SPR, mAb captured on Protein A chip, hVISTA injected, PBST pH 7.4, 37 C
Answer each item with its documented koff.
Respond with the bare value in s⁻¹.

**Query** For the binder P1-077887 (P1-068748 H31S D100S) (antibody, V domains shown, Reversion mutant of P1-068748 (Kabat names); captured on a Protein A chip) VH: QVQLVESGGGVVQPGRSLRLSCAASGFTFSSHAMHWVRQAPGKGLEWVAIIWYDGSNDDYADSVKGRFTISRDNSKNTLYLQMNSLRAEDTAVYYCARDSGFYSSYYFDYWGQGTLVTVSS VL: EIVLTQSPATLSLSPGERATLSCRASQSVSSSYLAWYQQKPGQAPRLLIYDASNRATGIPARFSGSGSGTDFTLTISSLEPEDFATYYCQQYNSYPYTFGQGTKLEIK , give its measured koff value.
**Result** 0.0027

**Query** For the binder P1-077883 (P1-068748 H31S D57K) (antibody, V domains shown, Reversion mutant of P1-068748 (Kabat names); captured on a Protein A chip) VH: QVQLVESGGGVVQPGRSLRLSCAASGFTFSSHAMHWVRQAPGKGLEWVAIIWYDGSNKDYADSVKGRFTISRDNSKNTLYLQMNSLRAEDTAVYYCARDSGFYDSYYFDYWGQGTLVTVSS VL: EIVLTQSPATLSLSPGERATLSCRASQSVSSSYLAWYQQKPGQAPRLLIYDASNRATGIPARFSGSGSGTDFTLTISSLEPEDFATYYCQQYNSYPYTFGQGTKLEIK , give its measured koff value.
**Result** 0.035

**Query** For the binder P1-077893 (P1-068748 D57K D100S) (antibody, V domains shown, Reversion mutant of P1-068748 (Kabat names); the antibody was captured on a Protein A chip, so an Fc was present) VH: QVQLVESGGGVVQPGRSLRLSCAASGFTFSHHAMHWVRQAPGKGLEWVAIIWYDGSNKDYADSVKGRFTISRDNSKNTLYLQMNSLRAEDTAVYYCARDSGFYSSYYFDYWGQGTLVTVSS VL: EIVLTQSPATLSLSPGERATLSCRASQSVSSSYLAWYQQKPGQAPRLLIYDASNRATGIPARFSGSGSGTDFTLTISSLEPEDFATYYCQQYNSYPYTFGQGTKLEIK , give its measured koff value.
**Result** 0.0019

Reference for the values: patent US20230192860A1
